Attribution: patent US12077483B2

Experiment: RNA encapsulation efficiency of LNP (Ribogreen fluorescence assay)
Assay type: physicochemical
Conditions: Table 13; LNP sgRNA:Cas9 mRNA 1:2 w/w, N/P 6.0
Assay Endpoint: % E (%)

Molecule	% E [%]
CCCCC/C=C\C/C=C\CCCCCCCC(=O)OCC(COC(=O)CCCCCCC/C=C\C/C=C\CCCCC)OC(=O)CCC(CCCCC)OC(=O)NCCN1CCCC1 (stereo not shown) [Compound 72]	94
CCCCC/C=C\C/C=C\CCCCCCCC(=O)OCC(COC(=O)CCCCCCC/C=C\C/C=C\CCCCC)OC(=O)CCC(CCCCCCCCCCCC)OC(=O)NCCN1CCCC1 (stereo not shown) [Compound 46]	99
CCCCC/C=C\C/C=C\CCCCCCCC(=O)OCC(COC(=O)CCCCCCC/C=C\C/C=C\CCCCC)OC(=O)CCC(CCCCCCCC)OC(=O)NCCN1CCCC1 (stereo not shown) [Compound 51]	98
CCCCC/C=C\C/C=C\CCCCCCCC(=O)OCC(COC(=O)CCC(OCCCCCCCC)OCCCCCCCC)COC(=O)OCCCN(CC)CC (stereo not shown) [Compound 49, reference compound]	98
CCCCC/C=C\C/C=C\CCCCCCCC(=O)OCC(COC(=O)CCCCCCC/C=C\C/C=C\CCCCC)OC(=O)CCC(CCCC)OC(=O)NCCN1CCCC1 (stereo not shown) [Compound 85]	96
CCCCC/C=C\C/C=C\CCCCCCCC(=O)OCC(COC(=O)CCCCCCC/C=C\C/C=C\CCCCC)OC(=O)CCC(CCCCCC)OC(=O)NCCN1CCCC1 (racemic) [Compound 50]	97
CCCCC/C=C\C/C=C\CCCCCCCC(=O)OCC(COC(=O)CCCCCCC/C=C\C/C=C\CCCCC)OC(=O)CCC(CCCCCCCC)OC(=O)NCCN(C)CC (stereo not shown) [Compound 34]	97

---

Assay: LNP average particle size and polydispersity by dynamic light scattering
Format: physicochemical
Conditions: LNP with the compound as amine lipid; Expt. 7; composition ratio (mol %) 50/9/38/3 for Cmpnd 49, 50/10/38.5/1.5 for the others
Assay Endpoint: PDI

A. CCCCC/C=C\C/C=C\CCCCCCCC(=O)OCC(COC(=O)CCCCCCC/C=C\C/C=C\CCCCC)OC(=O)CCC(CCCCC)OC(=O)OCCCN1CCCC1 (stereo not drawn)
B. CCCCC/C=C\C/C=C\CCCCCCCC(=O)OCC(COC(=O)CCCCCCC/C=C\C/C=C\CCCCC)OC(=O)CCC(CCCCCCCC)OC(=O)OCCCN1CCCC1 (stereo not drawn)
C. CCCCC/C=C\C/C=C\CCCCCCCC(=O)OCC(COC(=O)CCCCCCC/C=C\C/C=C\CCCCC)OC(=O)CCC(CCCCCCC)OC(=O)OCCCN1CCCC1 (stereo not drawn)
D. CCCCC/C=C\C/C=C\CCCCCCCC(=O)OCC(COC(=O)CCCCCCC/C=C\C/C=C\CCCCC)OC(=O)CCC(CCCCCC)OC(=O)OCCCN1CCCC1 (stereo not drawn)
In a descending ranking, list each entry from above by its PDI, from the largest value down to the smallest. Provide your answer as the labels ordered per the instruction. B, A, C, D
(B: 0.058, A: 0.035, C: 0.02, D: 0.012)

---

Experiment: LNP average particle size and polydispersity by dynamic light scattering
Assay type: physicochemical
Details: LNP with the compound as amine lipid; Expt. 2; composition ratio (mol %) 50/9/39.5/3 for Cmpnd 49, 50/9/39.5/1.5 for the others
Assay Endpoint: Z-Ave Size (nm)

Molecule	Assay Endpoint	Assay Result
CCCCC/C=C\C/C=C\CCCCCCCC(=O)OCC(COC(=O)CCC(OCCCCCCCC)OCCCCCCCC)COC(=O)OCCCN(CC)CC (centres unmarked) [Compound 49, reference compound]	Z-Ave Size (nm)	88.36
CCCCC/C=C\C/C=C\CCCCCCCC(=O)OCC(COC(=O)CCCCCCC/C=C\C/C=C\CCCCC)OC(=O)CCC(CCCCCC)OC(=O)OCCCN1CCCC1 (centres unmarked)	Z-Ave Size (nm)	102.70
CCCCC/C=C\C/C=C\CCCCCCCC(=O)OCC(COC(=O)CCCCCCC/C=C\C/C=C\CCCCC)OC(=O)CCC(CCCC)OC(=O)NCC1CCCN1C (centres unmarked)	Z-Ave Size (nm)	102.20
CCCCC/C=C\C/C=C\CCCCCCCC(=O)OCC(COC(=O)CCCCCCC/C=C\C/C=C\CCCCC)OC(=O)CCC(CCCC)OC(=O)OCCCN1CCCC1 (centres unmarked)	Z-Ave Size (nm)	122.30
CCCCC/C=C\C/C=C\CCCCCCCC(=O)OCC(COC(=O)CCCCCCC/C=C\C/C=C\CCCCC)OC(=O)CCC(CCCCCC)OC(=O)NCC1CCCN1C (centres unmarked)	Z-Ave Size (nm)	97.65
